Overview of reported PBM binding z-score across a group of sequences:
Test system: RARg:RXRa (NR concentration 270 nM, RXRa partner concentration 90 nM)
measurementNotes: PBM binding z-score (relative to random genomic background probes); higher = stronger binding; sequences stand for … in GC…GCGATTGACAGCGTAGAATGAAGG
API doc: respond with a numeric literal and nothing else, no unit.

Example cases with answers are listed next.
CGAACTAGGTCACCAAGACAGTGAAGAGGTTGGA = 4.04
CCGAGTCGGTTACGAGGGGGCATTCAGTGCGAAT = 1.66
CGAACTAGGCCAAAGGACAGTGAAAGGCGACGTA = 0.441
GCTTACGGGTCAAAGGTTATAGTATGAATAGAAT = 6.8
CCTGCTCGGTCAATGGTCAGCTAAAGCAGCTCGC = 1.65
CAATCTAGGTCACAGAGGTCAAAGTCCGTGCGTA = 7.55

So what's the measured PBM binding z-score for this one? ATCGAAGGGTCGAAGGTGAGTATACCCACCCGAA
2.67

Please give the result for CCTACTGGGCGACGAAAGGTCATTGATTCAGTGA too.
4.14

Please give the result for AGTCAAAGTTCACGACGAGGTAACGTAAAGCACG too.
6.88

Please give the result for ACTCGGAGGACAGAGGTCAGAGCTACGCCAGTGA too.
4.6

----------
Test system: RARb:RXRa (NR concentration 270 nM, RXRa partner concentration 90 nM)
measurementNotes: PBM binding z-score (relative to random genomic background probes); higher = stronger binding; sequences stand for … in GC…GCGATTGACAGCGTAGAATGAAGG
Overview of reported PBM binding z-score across a group of sequences:
API doc: respond with a numeric literal and nothing else, no unit.

Example cases with answers are listed next.
CGAACTAGGTCAAAGGACAGGGAAAGGCGACGTA = 3.9
CGAACTAGGTCACCAGGACCGTGAAGAGGTTGGA = 4.08
CGAACTAGGTCACCAGGACAGTGTAGAGGTTGGA = 4.1
ATCGAAAGGTCGACGAGGTGAGTATGCACCGTTT = 3.99
CGAACTAGGTCAAAGGACAGCGAAAGGCGACGTA = 3.93

So what's the measured PBM binding z-score for this one? CGGCCAAGGTCAAAGGTCAGTGAAGAGATGACGG
6.06

Please give the result for CCGAGTAGGTTACGAGGGGGCATTGAGTGCGAAT too.
2.02

Please give the result for TAGCCTAGGTCATTGGGCCAGTATAGTACGCATC too.
3.59

Please give the result for ATGTGTAGGTTAGGGTCATTCAGAAAGTAGGGAA too.
3.87

Please give the result for CTTAGTTGGTCAAGGTCACACACGCTATAGGTAC too.
4.35

Please give the result for TGAATGAGGTCAAAGATCAGGGAACGTGGCGTCG too.
4.99

Please give the result for TCGAGTAGTTTACGGGGGCATTCAGGGATGAAGA too.
2

Please give the result for CGAACTAGGTCAAAGAACAGTGAAAGGCGACGTA too.
3.58

Please give the result for ATATGTAGGGTAGGGTCATTCAGAAAGTAGGGAA too.
3.21

Please give the result for AATACAGGGTCATTAGGCCAGAGTAGGTACGAAT too.
4.04

Please give the result for TTACCAAGGTAAAAGGTCGTTGATGCACGCCTTG too.
2.28

Please give the result for CTATGTAGGTTAAGGTGGTCATTCAGTTTGAAAG too.
1.53

Please give the result for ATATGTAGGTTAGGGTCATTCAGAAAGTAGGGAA too.
3.34

Please give the result for CCGACTGGGGCAAAGGTTACCACACTCAGTACGA too.
2.54

Please give the result for CCTACTGGGCCAAAGGACATTGATTCCAATGCTC too.
0.93

----------
Test system: RARg homodimer (NR concentration 270 nM)
measurementNotes: PBM binding z-score (relative to random genomic background probes); higher = stronger binding; sequences stand for … in GC…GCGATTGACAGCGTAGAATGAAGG
measurementType: PBM binding z-score
API doc: respond with a numeric literal and nothing else, no unit.

CTATGTAGGTTAAGGGGGTCATTCAGTTTGAAAG = 4

So what's the measured PBM binding z-score for this one? TCTAGTTCGTCACGGAGGTCACACACGACGGGTA
4.04

Please give the result for CGAACTAGGTCAAAGCACAGTGAAAGGCGACGTA too.
4.07

Please give the result for CTATGTAGGGTAAGGGGGTCATTCAGTTTGAAAG too.
3.92

----------
Test system: LXRa homodimer (NR concentration 270 nM)
measurementNotes: PBM binding z-score (relative to random genomic background probes); higher = stronger binding; sequences stand for … in GC…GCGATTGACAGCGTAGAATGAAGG
measurementType: PBM binding z-score
API doc: respond with a numeric literal and nothing else, no unit.

Example cases with answers are listed next.
CGAACTAGGTCACCAGCACAGTGAAGAGGTTGGA = 0.171
CGTCAAAGTTCAAGGCAACGTAACAGAAAGCAGC = 2.35
CCGAGTAGGTTACGAGGCGGCATTCAGTGCGAAT = -0.363
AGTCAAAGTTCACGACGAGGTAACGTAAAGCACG = 3.15
CCGAGTAGGTTACGAGAGGGCATTCAGTGCGAAT = 2.68

So what's the measured PBM binding z-score for this one? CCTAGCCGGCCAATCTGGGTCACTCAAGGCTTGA
0.0438

Please give the result for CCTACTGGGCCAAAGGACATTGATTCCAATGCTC too.
-0.295

----------
Test system: PXR homodimer (NR concentration 270 nM)
measurementNotes: PBM binding z-score (relative to random genomic background probes); higher = stronger binding; sequences stand for … in GC…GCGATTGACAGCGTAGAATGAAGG
Please note: Y applies when PBM binding z-score is 2 or greater, and N applies otherwise.

CCGAGCAGGTTACGAGGGGGCATTCAGTGCGAAT = Y
CCTACAGGGCCAAAGGTCATTGATTCCAATGCTC = Y
TTACCAAGGTGAACTGAGGTCGTTGATCCAACTC = N
CCGACTGGGGCAACGGTTACCATACTCAGTACGA = N
CGAACTAGGTCATCGAGGACAGTGAATACATTGA = Y
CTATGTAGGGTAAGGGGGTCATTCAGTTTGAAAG = Y

Can CGTCCAAGGTCATAGGAGTTCAGTGAAGACAGAT be said to have PBM binding z-score at or above 2?
Y

Please give the result for CAAACTAGGTCACGAAAGGTCAAAGTTGAATGAC too.
Y

Please give the result for TCTCGGAGGACACGAAAGGTCAGTGCTCGACATC too.
N

----------
Overview of reported PBM binding z-score across a group of sequences:
System: PXR homodimer (NR concentration 270 nM)
measurementNotes: PBM binding z-score (relative to random genomic background probes); higher = stronger binding; sequences stand for … in GC…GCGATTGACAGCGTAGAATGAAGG
API doc: respond with a numeric literal and nothing else, no unit.

Example cases with answers are listed next.
CCGAGTAGGTTACGAGGGGGCATTCAATGCGAAT = 0.729
GCTTACGGGTCAAAAGTTATAGCATGAATAGAAT = 0.168
CTCGAAAGGTCAGTTGAGGTGAGTATACGGATAA = 0.639
CAAGCTAGGTCAAAGGTCAAAGTCGAGCCAACCA = 1.5
GATACAGGGTGAAGGCCAGAGTACGCGTATTGAT = -0.0784
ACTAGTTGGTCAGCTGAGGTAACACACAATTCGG = -0.174
CCTACTGGGCCACGAAAGGTCCTTGATTCAGTGA = -0.492
TAGCATAGGTCATGCGGGCCAGTATAGTGTCGGC = 0.0553
CTATGTAGGTAAAGGGGGTCATTCAGTTTGAAAG = 10.7
CCGAGTAGGTTACGAGGGGACATTCAGTGCGAAT = 2.23

I'm curious: which PBM binding z-score was measured for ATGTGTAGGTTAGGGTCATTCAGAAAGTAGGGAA tested on PXR homodimer (NR concentration 270 nM)?
3.2

Please give the result for TTACCAAGGTGAAAGGTCGTTGAGGCACGCCTTG too.
0.614

Please give the result for CCGAGTAGGTTACGAGGGGCCATTCAGTGCGAAT too.
1.09

Please give the result for CTATGAAGGTTAAGGGGGTCATTCAGTTTGAAAG too.
13.8

----------
System: VDR homodimer (NR concentration 270 nM)
measurementNotes: PBM binding z-score (relative to random genomic background probes); higher = stronger binding; sequences stand for … in GC…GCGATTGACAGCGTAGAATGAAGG
Please note: yes (1) applies when PBM binding z-score is 4 or greater, and no (0) applies otherwise.

Examples from the recorded data:
TCGAGTAGGTTACGGGGGCAATCAGGGATGAAGA = no (0)
CGGAGTAGGTTACGAGGGGGCATTCAGTGCGAAT = no (0)
CTAGGTAGGTTAAGGGGGTCATTCAGTTTGAAAG = yes (1)

Can TAGCCTAGGTCATTCAGGGGTCAGTATAGAAAGC be said to have PBM binding z-score at or above 4?
yes (1)

Please give the result for CGAACTAGGTCACCCGGACAGTGAAGAGGTTGGA too.
no (0)

Please give the result for TCTAGTTGGTTACGGAGGTCACACACGACGGGTA too.
no (0)

Please give the result for CCTTACGGGTCACTGACAGGTCATAGCATTTGGA too.
no (0)

Please give the result for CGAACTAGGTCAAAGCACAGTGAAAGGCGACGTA too.
no (0)

Please give the result for GATACAGGGTCAAGGCCAGAGTACGCGTATTGAT too.
no (0)

Please give the result for ATATGTAGGTTTGGGTCATTCAGAAAGTAGGGAA too.
no (0)
